- System: CAKI-1 renal
- protocolDescription: NCI-60 one-dose screen, 48 h (100 = growth as untreated, 0 = no growth, -100 = all killed)
- runParameters: 10 µM unless noted
This is part of a sample that, as a whole, favours compounds with a hit. Of some 83,000 tested, about 20% had one in any assay.
measuredQuantity: growth (%)
// units = %; emit number, no label

As a guide, the following entries are already answered.
compound | systemTested | unitAbbrev | growth
COc1cc2c(cc1OC)C(Sc1ccc(F)cc1)c1c(nc(N)c(C#N)c1N)O2 (stereo not drawn) | CAKI-1 renal | % | -58.4
CC(C)(C)CC(C)(C)n1nnnc1C(Nc1nccs1)c1cc2cccc3ccc4cccc1c4c32 (stereo not drawn) | CAKI-1 renal | % | 75.9
NS(=O)(=O)c1ccc(Nc2nc(N/N=C/c3ccccn3)nc(Nc3ccccc3)n2)cc1 | CAKI-1 renal | % | -25.3
COc1ccc(NCc2cn(-c3ccc(C(=O)O)cc3)nc2-c2cc(C(F)(F)F)cc(C(F)(F)F)c2)cc1 | CAKI-1 renal | % | 81.5
CC(=O)N(C)C1CCc2c(sc(NC(=O)c3ccc(C(C)(C)C)cc3)c2C(N)=O)C1 (stereo not drawn) | CAKI-1 renal | % | 64.8

-- ask API: value(readout=growth, system=CAKI-1 renal) for record CN(Cc1ccccc1)S(=O)(=O)/N=C1\NC(=O)NC1=C(Cl)Cl
-- reply 86.8

-- ask Return growth measured with CAKI-1 renal given this compound: C#Cc1nc(C(=O)NCCC(=O)Nc2ccc(NC(=O)c3ccc(/C=C/C(=O)c4nccn4C)cc3)cc2)cs1
-- reply 38.9

-- ask GET /values?readout=growth&system=CAKI-1 renal&item= COc1cc(-c2nc(SC(C)C)n(C(C)C)c(=O)c2C#N)ccc1OCc1ccccc1
-- reply 54.8

---

- Tested on: IGROV1 ovarian
- protocolDescription: NCI-60 one-dose screen, 48 h (100 = growth as untreated, 0 = no growth, -100 = all killed)
- runParameters: 10 µM unless noted
- Procedure: Growth inhibition of the IGROV1 human tumor cell line is measured as a screen for anti-cancer activity. Cells are grown in 96 well plates and exposed to the test compound for 48 hours. Compounds are tested at a single concentration, which is 10^-5 M for most compounds. The reported endpoint is percent growth (GI% or GIPRCNT), where numbers from 0 - 100% represent growth inhibition, and numbers from -100% - 0 represent cell death. For example, a value of 40 represents 60% growth inhibition. […]
Compounds without any hit were thinned out: in the full panel of roughly 83,000, 20% have a hit.
# if measured growth < 80%: Fulfilled  # else: Not fulfilled

Examples from the recorded data:
molecule | answerLabel
Cc1cccc(/C=C/C(=O)Nc2ncc(Cc3cccc(C)c3)s2)c1 | Fulfilled
C[C@@H](Nc1ncnc2ccc(-c3cnc(Cl)c(NS(C)(=O)=O)c3)cc12)c1ccccc1 | Fulfilled
CCCCCc1ccc(S(=O)(=O)Nc2cccc(-c3csc(NC(=O)CCCCCN4CCN(CCO)CC4)n3)c2)cc1 | Not fulfilled
N/C(=N\C(N)=N\c1nc2ccccc2s1)c1ccc2ccccc2c1 | Fulfilled
CCCn1cnc2c(c1=N)C(c1ccc(Cl)cc1)c1sc3c(CC)cccc3c1O2 (stereo not given) | Fulfilled
CC(=O)O[C@@H]1C(=O)N(c2cnccn2)[C@H]1c1ccccc1[N+](=O)[O-] | Fulfilled
Cn1cc(-c2nc(N)nnc2-c2c[nH]c3ccc(Br)cc23)c2cc(Br)ccc21 | Fulfilled
COc1ccc(NCc2cn(-c3ccc(C(=O)O)cc3)nc2-c2cc(C(F)(F)F)cc(C(F)(F)F)c2)cc1 | Not fulfilled
Cc1ccc2c(c1)C(=O)/C(=C/c1cccc(F)c1)S2 | Not fulfilled
COc1ccc2c(c1)c(CC(=O)[Se]CC#N)c(C)n2C(=O)c1ccc(Cl)cc1 | Fulfilled

-- ask Please determine if COc1cc(Cn2cc3c(c2)-c2onc(CN4CCOCC4)c2CC3)cc(OC)c1OC is below 80% in terms of growth.
-- reply Not fulfilled

-- ask Dear colleague, could you confirm whether growth of O=C1Nc2ccccc2/C1=C/c1ccc(COCC2CO2)n1-c1ccc(O)cc1 (stereo not given) falls below 80%? Thanks.
-- reply Not fulfilled

-- ask Lab note: growth threshold 80%. Does this molecule come in strictly under it? COc1ccc(CCOc2cc3c(cc2OC)CCN(C(=O)NCc2cocn2)C3c2ccc(C)cc2C)cc1 (stereo not given)
-- reply Fulfilled

-- ask Record NS(=O)(=O)c1ccc(Nc2nc(N/N=C/c3ccccn3)nc(Nc3ccccc3)n2)cc1 : is its growth strictly below 80%?
-- reply Fulfilled

-- ask Criterion: growth strictly below 80%. Is it met by Cc1nc(-c2ccccc2O)ccc1C(=O)N=Nc1c(O)[nH]c2ccc(Br)cc12 ?
-- reply Not fulfilled

-- ask Consider the molecule COc1cc(C2N=C(NNc3ccccc3)NC(C)=C2C(C)=O)ccc1O (stereo not given) . Is its growth strictly less than 80%?
-- reply Fulfilled

-- ask Please let me know if COC(=O)C(Cc1ccccc1)Nc1nc(NC(Cc2ccccc2)C(=O)OC)nc(N2CCOCC2)n1 (stereo not given) shows growth below 80%.
-- reply Not fulfilled

-- ask Dear colleague, could you confirm whether growth of CNC(=O)c1cc(-n2ccc3cc(NC(=O)Nc4ccc(N5CCOCC5)c(C(F)(F)F)c4)ccc32)ccn1 falls below 80%? Thanks.
-- reply Fulfilled

-- ask Is growth strictly under 80% for the entry COc1cc(-c2nc(SC(C)C)n(C(C)C)c(=O)c2C#N)ccc1OCc1ccccc1 ?
-- reply Fulfilled

---

- System: SK-MEL-5 melanoma
- protocolDescription: NCI-60 one-dose screen, 48 h (100 = growth as untreated, 0 = no growth, -100 = all killed)
- runParameters: 10 µM unless noted
About 83,000 compounds went through this panel and 20% of them were active in at least one assay; those are over-represented in the sample as a whole.
measuredQuantity: growth (%)
Give the value in % but do not write % after it.

Consider the following illustrative entries.
structureAsSmiles | unitAbbrev | reportedValue
Nc1nc(-c2cccc([N+](=O)[O-])c2)c(N=Nc2ccccc2)s1 | % | 42.5
Cn1ccnc1C(=O)/C=C/c1ccc(CNC(=O)c2ccc(Cl)cc2)cc1 | % | 32.6
COc1ccc(/C=C(/C)c2ccc3ccc(OC)cc3[o+]2)c(O)c1 | % | 61.6
NC(N)=Nc1ccc(Oc2cccc(Nc3ccc(Br)c(C(F)(F)F)c3)c2)cn1 | % | 16.9

Now consider the entry below.
-- ask Reported growth for SK-MEL-5 melanoma, given C#CCOc1ccc(/C=N\Nc2nc(-c3ccc(C)cc3)cs2)cc1OC ?
-- reply 71.6

---

- System: MALME-3M melanoma
- protocolDescription: NCI-60 one-dose screen, 48 h
- runParameters: 10 µM unless noted
- Procedure: Cells are grown in 96 well plates and exposed to the test compound for 48 hours. Compounds are tested at a single concentration, which is 10^-5 M for most compounds. The reported endpoint is percent growth (GI% or GIPRCNT), where numbers from 0 - 100% represent growth inhibition, and numbers from -100% - 0 represent cell death. For example, a value of 40 represents 60% growth inhibition. A value of 0 means no net growth occurred over the course of the experiment. […]
This is part of a sample that, as a whole, favours compounds with a hit. Of some 83,000 tested, about 20% had one in any assay. The source made the active and inactive calls. Rule for the calls: active = growth percent below 10; inactive = the rest.
Choose the fitting class; nothing outside active, inactive is accepted.

Solved entries:
compound | answerLabel
O=S(=O)(Nc1ccc(I)cc1Cl)c1ccc(-c2cnc(C3CC3)o2)cc1 | inactive
CC(=O)N1N=C(c2cccc(-n3cccc3)c2)CC1c1cccc(F)c1 (centres undefined) | inactive
Cc1ccc(CSc2nc(-c3ccc(Cl)cc3)c(C#N)c(N3CCNCC3)n2)cc1 | inactive
COc1ccc(-n2c(SCc3n[nH]c(=S)o3)nc3ccc(Cl)cc3c2=O)cc1 | inactive
COc1ccc([C@@H]2[C@@H](O)C(=O)N2c2cc(OC)c(OC)c(OC)c2)cc1F | inactive
Oc1cccc2ccc(-c3nnc(SCc4ccc(O)c5ncccc45)n3-c3ccccc3)nc12 | active
C=CCn1c(SCC(=O)Nc2ccc(C(=O)/C=C/c3ccc(Br)cc3)cc2)nnc1-c1c[nH]c2ccccc12 | inactive
CCN1CCN(Cc2cn(-c3ccc(S(N)(=O)=O)cc3)nn2)CC1 | inactive

Here's the next entry for you.
-- ask Test call, this compound: CN1CCN(Cc2ccc(NC(=O)c3cncc(C#Cc4cnc5ccc(N6CCN(C)CC6)nn45)c3)cc2C(F)(F)F)CC1
-- reply inactive

---

- System: UACC-62 melanoma
- protocolDescription: NCI-60 one-dose screen, 48 h (100 = growth as untreated, 0 = no growth, -100 = all killed)
- runParameters: 10 µM unless noted
- Protocol: Growth inhibition of the UACC-62 human tumor cell line is measured as a screen for anti-cancer activity. Cells are grown in 96 well plates and exposed to the test compound for 48 hours. Compounds are tested at a single concentration, which is 10^-5 M for most compounds. The reported endpoint is percent growth (GI% or GIPRCNT), where numbers from 0 - 100% represent growth inhibition, and numbers from -100% - 0 represent cell death. For example, a value of 40 represents 60% growth inhibition. […]
Compounds without any hit were thinned out: in the full panel of roughly 83,000, 20% have a hit.
measuredQuantity: growth (%)
Please reply with the bare figure in % and do not write the unit itself.

See these solved cases before continuing.
compound | growth [%]
CCN(CC)c1ccc2c(c1)Oc1nc(N)c(C#N)c(N)c1C2Sc1ccc(F)cc1 (centres undefined) | -52.5
Brc1ccccc1/C=N/Nc1nc(N/N=C/c2ccccc2Br)nc(N2CCOCC2)n1 | 102
O=C(Nc1nc2ccc([N+](=O)[O-])cc2s1)Nc1ccccc1Br | 32.3

-- ask Form field: reported growth of O=C(NCCn1ccnc1)c1ccc(-c2nc3ccc4[nH]ncc4c3c3c2CCCC3)cc1
-- reply 28.8

-- ask What value of growth has been recorded for this entry: CCCn1cnc2c(c1=N)C(c1ccc(F)cc1)c1sc3c(C)cccc3c1O2 (centres undefined)
-- reply 27.7
